# Test system: human FRDA patient fibroblasts
# Method description: Diamide screening assay: protection of FRDA patient fibroblasts from diamide toxicity (Calcein-AM viability)
# Assay type: cell-based
# Assay conditions: Homo sapiens, Fibroblast, n=3
Where a name gives a salt, the structure may show the parent alone.
Metric name: EC50 (nM)
Note: unit nM is implicit; provide only the numeric part.

> print(dat)
                                  compound  metric.name  numeric.readout
1  COC(=O)/C=C/C(=O)OC [dimethyl fumarate]         EC50             1300

Could you now look at the following compound, please?
Field EC50 (entry Cc1cc2nc3ccc(N(C)C)cc3[s+]c2cc1N ) reads 100
